Reference source: patent US20240301319A1

Exercise: state measured Volatility for each of the molecules provided.
- PROTOCOL_TEXT: Volatility of perfuming compounds (Tables 4 to 10), with top/middle/bottom note type
- Assay type: physicochemical
- SETUP_CONDITIONS: Table 9, gourmand note
Answer format: numeric, μg/l air implied, no suffix.

Lab note: CCCCC1CCC(=O)O1 (racemic) [(+−)-4-OCTANOLIDE] gave Volatility of 108.41

What the record says about `COc1cccc(OC)c1O` : Volatility is 19.23

# Volatility of C/C=C/C(=O)[C@@H]1[C@@H](C)C=CCC1(C)C (racemic) = 143.53

Volatility recorded for this molecule, `COc1ccc(CCC(C)=O)cc1` , is 5.58

Summary for this molecule, CCCCCCC1CCC(=O)O1 (racemic) [(+−)-4-DECANOLIDE] : Volatility is 10.49

The measured Volatility associated with CCCCCC1CCCC1=O (racemic) [(+−)-2-pentylcyclopentanone] reads 560.22

Notebook: CCCCCC(=O)OCC [ETHYL HEXANOATE] , Volatility read as 9675.10

# molecule CC/C=C\CCOC(=O)C/C=C\CC [(3Z)-3-hexen-1-yl (3Z)-3-hexenoate] ; its Volatility = 210.68

Reported Volatility ( COc1cc(C=O)ccc1O [4-hydroxy-3-methoxybenzaldehyde] ) = 4.24

Per the record, CCCC=C1OC(=O)c2ccccc21 [3-BUTYLIDENE-1-BENZO[C]FURANONE] has Volatility of 14.37

Entry `CC/C=C\CC1=C(C)CCC1=O` , Volatility reported as 56.72

Consider CCCCC1CCCC(=O)O1 (centres unmarked) [5-NONANOLIDE] . Its measured Volatility is 23.87

// Volatility value for O=Cc1ccc2c(c1)OCO2 [benzo[d][1,3]dioxole-5-carbaldehyde] : 61.82

The recorded Volatility for `CCCCO` is 17700.00

Noted for C/C=C/c1ccc(O)c(OC)c1 [2-methoxy-4-[(1E)-1-propen-1-yl]phenol] : its Volatility reads 11.28

The molecule listed as COC(=O)Cc1ccccc1 [METHYL PHENYLACETATE] shows Volatility equal to 555.30

// field: Volatility; key: C/C=C/c1ccc(OC)cc1 [1-methoxy-4-[(1E)-1-propen-1-yl]benzene] ; value = 184.60

Value of measured Volatility for the entry `COc1cc(C=O)ccc1OC(=O)C(C)C` : 1.01

So for `C[C@@H]1CC[C@H]2[C@H](C)C(=O)O[C@@H]2C1` , the logged Volatility turned out to be 74.03

Record C=CCOC(=O)CCCCCC [ALLYL HEPTANOATE] . Reported Volatility: 1235.24

The reported Volatility of the molecule CCCCCCCC1CCCC(=O)O1 (racemic) [(+−)-6-heptyltetrahydro-2H-pyran-2-one] was 0.90

// Volatility lookup, molecule = C=CCSSCC=C [DIALLYL DISULFIDE] , result: 5487.52

Value of Volatility reported for the molecule CC1=CC[C@H](C(C)CC2CCCC2=O)CC1 (some centres unmarked) is 2.05

====

- PROTOCOL_TEXT: Volatility of perfuming compounds (Tables 4 to 10), with top/middle/bottom note type
- Assay type: physicochemical
- SETUP_CONDITIONS: Table 6, perfuming compounds having a fruity note; note type by volatility
MEASURE_NAME: Type

Solved entries (count: 5):
- COMPOUND: "CCCCC/C=C\\C=C\\C(=O)OCC [ethyl (2E,4Z)-2,4-decadienoate]"
  MEASURE_NAME: "Type"
  VALUE_OBSERVED: "Bottom"
- COMPOUND: "CC(=O)OC(C)CC(C)(C)c1ccccc1 (racemic) [(+−)-1,3-DIMETHYL-3-PHENYLBUTYL ACETATE]"
  MEASURE_NAME: "Type"
  VALUE_OBSERVED: "Middle"
- COMPOUND: "CCc1occc(=O)c1O [2-ETHYL-3-HYDROXY-4(4H)-PYRANONE]"
  MEASURE_NAME: "Type"
  VALUE_OBSERVED: "Bottom"
- COMPOUND: "CCCCC[C@@H]1OC(=O)C[C@H]1C (racemic) [(+−)-TRANS-3-METHYL-4-NONANOLIDE]"
  MEASURE_NAME: "Type"
  VALUE_OBSERVED: "Bottom"
- COMPOUND: "CCC=CCC=C/C=C/C(=O)OCC [ETHYL (2E)-2,4,7-DECATRIENOATE]"
  MEASURE_NAME: "Type"
  VALUE_OBSERVED: "Bottom"

Memo: CCCCCCCCC1CCC(=O)O1 (racemic) [(+−)-5-octyldihydro-2(3H)-furanone] , reported Type: Bottom

So for O=C(OCc1ccccc1)c1ccccc1 [BENZYL BENZOATE] , the logged Type turned out to be Bottom

Kindly note the recorded Type for CCC(C)C(=O)OCCc1ccccc1 (racemic) [(+−)-2-PHENYLETHYL 2-METHYLBUTANOATE] , which is Bottom
